Overview of recorded TGI for various compounds
tested on: A498 renal; test: NCI tumour cell line growth inhibition, 48 h
Please state the figure in µM; there is no need to write the unit.

Observe how each entry below is paired with its result.
CN(C)Cc1cc(N=Nc2ccc(Cl)c(Cl)c2)ccc1O: 23.9
Cn1c2ccccc2n2c3nc4ccccc4nc3c(C#N)c12: 9.72
O=[N+]([O-])/C=C\c1ccc2c(c1)OCO2: 8.14
OC1CCC(C2C3CCCCC3C3CCCCC3C2C2CCC(O)CC2)CC1 (stereo not given): 32.2
Cc1ccc2c3c1O[C@H]1c4nc5ccccc5cc4C[C@@]4(O)[C@@H](C2)N(CC2CC2)CC[C@]314: 30.7

Item CCCCCc1c(CCCC)c(=O)[nH]c2cc(CNCC(OC)OC)ccc12 was tested on A498 renal; the reported TGI is 28.9

Item ClCCn1cnc2c(SCc3ccccc3)ncnc21 was tested on A498 renal; the reported TGI is 74.6

###

system: SF-268 CNS; test: NCI tumour cell line growth inhibition, 48 h
Overview of recorded TGI for various compounds
Please state the figure in µM; there is no need to write the unit.

CC(NC(=O)c1ccc(OP(=O)(OCC2=CC(=O)c3ccccc3C2=O)N(C)CCCCCl)cc1)c1ccc(OCC2CCCCC2)c(C(N)=O)c1 (centres undefined): 26.2

Item CN(C)CCOc1ccc(-c2c(Oc3ccc(Cl)cc3)c(=O)oc3ccccc23)cc1 was tested on SF-268 CNS; the reported TGI is 29.5

###

test system: IGROV1 ovarian; assay: NCI tumour cell line growth inhibition, 48 h
observation-type: TGI

Observe how each entry below is paired with its result.
CC[C@H]1C=CCC[C@@]2(C[C@@H]3CC[C@@H]4[C@H](C(=O)OCCCCCCCCCCCCCCCC(=O)N(CCCN)C[C@@H](O)CCN)[C@]5(CCC[C@@H](C)O5)NC(=[N+]34)N2)O1: > 3.82 µM
CN(C)CCNC(=O)c1cc([N+](=O)[O-])cc2ccc(-c3ccccc3)nc12: 25.6 µM
Cc1nc2c(Br)cc(Br)cc2c(=O)n1-c1ccccc1N: > 100 µM
Cc1ccc2c3c1O[C@H]1c4nc5ccccc5cc4C[C@@]4(O)[C@@H](C2)N(CC2CC2)CC[C@]314: > 100 µM

Kindly review the next compound as well.
Item CCCCCc1c(CCCC)c(=O)[nH]c2cc(CNCC(OC)OC)ccc12 was tested on IGROV1 ovarian; the reported TGI is 29.6 µM

###

tested on: M14 melanoma; assay: NCI tumour cell line growth inhibition, 48 h
observation-type: TGI

Cc1ccc(S(=O)(=O)ON/N=C2/C3OC3[C@@H]3CCCC[C@H]23)cc1 (some centres undefined): > 100 µM
Cc1ccc2c(c1)sc(-c1ccc(N(C)C)cc1)[n+]2C: > 38 µM
COc1ccc(-c2cn3c(n2)sc2cc(C)ccc23)cc1: > 100 µM

Kindly review the next molecule as well.
Entry under test: COC1C(=O)CCC2(CO2)C1(O)C1(C)OC1CCC(C)C (centres undefined) . Its TGI was > 100 µM

###

tested on: MOLT-4 leukemia
Pick from active, inactive when you respond.

O=[N+]([O-])/C=C\c1ccc2c(c1)OCO2: inactive
CCCCS(=N)(=O)CC[C@H](N)C(=O)O (some centres not stated): inactive
C=C(CNCCO)[C@@H]1CC[C@]2(CO)CC[C@]3(C)[C@H](CC[C@@H]4[C@@]5(C)CCC(NCCc6ccc(O)cc6)C(C)(C)[C@@H]5CC[C@]43C)[C@@H]12 (some centres not stated): active

input: Hi team, can someone confirm the assay call for Cc1ccc2c(c1)sc(-c1ccc(N(C)C)cc1)[n+]2C ?
output: inactive

input: Hi team, can someone confirm the assay call for ClCCn1cnc2c(SCc3ccccc3)ncnc21 ?
output: inactive

input: Hi team, can someone confirm the assay call for CCOC(=O)/C(C1=CC(=O)C(=O)c2ccccc21)=C(/C)NCc1ccccc1 ?
output: active

input: Hi team, can someone confirm the assay call for CCc1ccc(C2=C(O)C(=O)C(c3ccc(CC)cc3)=C(O)C2=O)cc1 ?
output: inactive
